Assayed System: recombinant human baculovirus-expressed cMET (Homo sapiens (Human))
Sequence (P08581 25-1390): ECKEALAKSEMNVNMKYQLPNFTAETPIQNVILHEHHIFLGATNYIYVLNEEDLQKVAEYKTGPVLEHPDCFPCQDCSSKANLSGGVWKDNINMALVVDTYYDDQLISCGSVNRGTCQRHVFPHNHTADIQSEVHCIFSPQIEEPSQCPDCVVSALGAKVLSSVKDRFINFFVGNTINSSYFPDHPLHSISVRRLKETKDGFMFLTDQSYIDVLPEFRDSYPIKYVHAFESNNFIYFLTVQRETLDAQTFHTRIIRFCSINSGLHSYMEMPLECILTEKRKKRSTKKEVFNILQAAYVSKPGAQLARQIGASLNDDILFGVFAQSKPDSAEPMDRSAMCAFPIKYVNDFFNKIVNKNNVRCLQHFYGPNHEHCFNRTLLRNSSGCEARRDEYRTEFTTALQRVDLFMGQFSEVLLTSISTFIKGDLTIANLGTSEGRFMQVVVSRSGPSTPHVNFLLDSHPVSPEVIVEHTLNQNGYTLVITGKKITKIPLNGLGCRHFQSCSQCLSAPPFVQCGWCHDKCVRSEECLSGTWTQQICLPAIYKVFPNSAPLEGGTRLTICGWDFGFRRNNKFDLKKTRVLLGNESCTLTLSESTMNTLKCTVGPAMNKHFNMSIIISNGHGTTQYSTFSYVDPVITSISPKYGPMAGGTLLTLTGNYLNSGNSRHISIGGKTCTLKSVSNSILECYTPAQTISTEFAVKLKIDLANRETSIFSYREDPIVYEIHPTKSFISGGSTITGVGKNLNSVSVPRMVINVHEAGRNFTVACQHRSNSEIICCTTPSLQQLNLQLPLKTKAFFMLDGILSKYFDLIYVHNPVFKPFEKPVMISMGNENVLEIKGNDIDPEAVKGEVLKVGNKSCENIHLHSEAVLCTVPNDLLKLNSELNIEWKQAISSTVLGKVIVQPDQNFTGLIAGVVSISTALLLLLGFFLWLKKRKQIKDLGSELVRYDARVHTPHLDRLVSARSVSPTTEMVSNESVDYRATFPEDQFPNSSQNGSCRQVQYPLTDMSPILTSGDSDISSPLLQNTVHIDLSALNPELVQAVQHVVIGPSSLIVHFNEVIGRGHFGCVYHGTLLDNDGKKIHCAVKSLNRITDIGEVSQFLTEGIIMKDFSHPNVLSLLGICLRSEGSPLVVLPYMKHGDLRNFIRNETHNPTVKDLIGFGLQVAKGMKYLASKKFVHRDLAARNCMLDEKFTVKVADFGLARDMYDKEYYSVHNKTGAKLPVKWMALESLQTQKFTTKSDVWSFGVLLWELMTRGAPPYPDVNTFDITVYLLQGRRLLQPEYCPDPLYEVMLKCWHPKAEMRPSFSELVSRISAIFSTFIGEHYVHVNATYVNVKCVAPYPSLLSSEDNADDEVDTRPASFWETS
Method Notes: c-MET kinase assay (HTRF KinEASE)
Assay type: biochemical
Conditions Used: average of two or more determinations; read-out: c-MET IC50
pIC50: −log10 of the molar value.
Parameter pIC50: see the listing below.

Example compounds with recorded pIC50:
Query Smiles: CC(=O)Nc1cc(Oc2ccc(NC(=O)c3cn(C(C)C)c(=O)n(-c4ccc(F)cc4)c3=O)cc2F)c2ccnn2c1
Result: > 8.00

Query Smiles: CCn1cc(C(=O)Nc2ccc(Oc3cc(-c4cncs4)cn4nccc34)c(F)c2)c(=O)n(-c2ccc(F)cc2)c1=O
Result: > 8.00

Query Smiles: CC(C)n1cc(C(=O)Nc2ccc(Oc3cc(-c4cn(C)cn4)cn4nccc34)nc2)c(=O)n(-c2ccc(F)cc2)c1=O
Result: > 8.00

Query Smiles: CCn1nc(C(=O)Nc2ccc(Oc3cc(-c4cn(C)cn4)cn4nccc34)cn2)c(=O)n(-c2ccc(F)cc2)c1=O
Result: > 8.00

Query Smiles: O=C(Nc1ccc(Oc2cccn3ncc(Cl)c23)c(F)c1)c1cccn(-c2ccc(F)cc2)c1=O
Result: 6.00 to 7.00

The value of pIC50 measured for the compound CCn1cc(C(=O)Nc2ccc(Oc3cc(-c4ncccn4)cn4nccc34)c(F)c2)c(=O)n(-c2ccc(F)cc2)c1=O turned out to be 7.00 to 8.00

The value of pIC50 measured for the compound O=C(Nc1ccc(Oc2cccn3nccc23)cc1)c1cccn(-c2ccc(F)cc2)c1=O turned out to be > 8.00

The value of pIC50 measured for the compound O=C(Nc1ccc(Oc2cc(N3CCOCC3)cn3nccc23)c(F)c1)c1cccn(-c2ccc(F)cc2)c1=O turned out to be > 8.00
